Entries and their fraction of cells in G1 phase
system: Saccharomyces cerevisiae; assay: fraction of cells in G1 phase (DNA content, flow cytometry); higher = more cells with unreplicated DNA (G1 delay); settings: temperature: 30 C; YPD; JTY2953 pdr5 snq2 (sensitized); drug added to: cultures diluted from stationary phase; 6-7 h

COMPOUND: CCCc1nn(C)c2c(=O)[nH]c(-c3cc(S(=O)(=O)N4CCN(C)CC4)ccc3OCC)nc12 [Sildenafil] (42.142 µM)
fraction of cells in G1 phase: 0.503
//
COMPOUND: C=C1/C(=C\C=C2/CCC[C@]3(C)[C@@H]([C@H](C)CCCC(C)C)CC[C@@H]23)C[C@@H](O)C[C@@H]1O [Alfacalcidol] (49.9188 µM)
fraction of cells in G1 phase: 0.606
//
COMPOUND: CN1CCN(c2c(F)cc3c(=O)c(C(=O)O)cn(CCF)c3c2F)CC1 [Fleroxacin] (54.1497 µM)
fraction of cells in G1 phase: 0.479
//
COMPOUND: C[C@@H]1CCC[C@H](C)N1NC(=O)c1ccc(Cl)c(S(N)(=O)=O)c1 [Clopamide] (57.8284 µM)
fraction of cells in G1 phase: 0.525
